# Assayed system: NS3h_2a(JFH1) (Hepatitis C virus genotype 2a, UniProt Q99IB8)
# Construct: truncated C-terminally His-tagged NS3 proteins lacking the N-terminal protease, called NS3h; His-tag (C); made in house
# Sequence (Q99IB8 1196-1661): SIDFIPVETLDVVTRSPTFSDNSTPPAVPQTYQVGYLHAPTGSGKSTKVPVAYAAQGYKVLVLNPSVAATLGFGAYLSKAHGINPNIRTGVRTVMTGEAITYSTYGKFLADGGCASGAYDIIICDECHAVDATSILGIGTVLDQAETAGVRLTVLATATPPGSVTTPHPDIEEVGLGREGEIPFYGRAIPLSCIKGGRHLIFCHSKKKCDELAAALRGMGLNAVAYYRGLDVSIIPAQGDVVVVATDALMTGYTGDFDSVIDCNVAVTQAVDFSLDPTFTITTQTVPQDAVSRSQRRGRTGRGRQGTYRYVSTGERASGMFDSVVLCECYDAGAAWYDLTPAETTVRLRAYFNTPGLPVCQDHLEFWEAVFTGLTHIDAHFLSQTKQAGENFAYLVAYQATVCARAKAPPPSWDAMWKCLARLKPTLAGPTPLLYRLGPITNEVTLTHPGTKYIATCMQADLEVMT
# Method notes: MBHA, DNA substrate, genotype 2a helicase
# Assay type: biochemical, hepatitis C virus genotype 2a(JFH1)
# Assay context: DNA-based MBHA, genotype 2a(JFH1); read-out: DNA Helicase NS3h_2a IC50 (μM) ± SD
For each record, check the reported IC50: if it is below 7 µM write Met, else write Not met.

These recorded examples may help you get a feel for the data.
# Test smiles, Cat
data = [
    ("Cc1ccc2nc(-c3ccc4nc(-c5ccc(N)cc5)sc4c3)sc2c1S(=O)(=O)O", "Not met"),
    ("Cc1ccc2nc(-c3ccc4nc(-c5ccc(NC(=O)c6ccc(F)cc6)cc5)sc4c3)sc2c1S(=O)(=O)O.N", "Met"),
    ("Cc1ccc2nc(-c3ccc4nc(-c5ccc(NC(=O)c6cc(C(F)(F)F)cc(C(F)(F)F)c6)cc5)sc4c3)sc2c1S(=O)(=O)O", "Not met"),
]

hey, is IC50 for `Cc1ccc2nc(-c3ccc4nc(-c5ccc(NC(=O)c6ccc(N)cc6)cc5)sc4c3)sc2c1S(=O)(=O)O` lower than 7 µM or not?
Met

hey, is IC50 for `Cc1ccc2nc(-c3ccc4nc(-c5ccc(NC(=O)c6cccc(Cl)c6)cc5)sc4c3)sc2c1S(=O)(=O)O` lower than 7 µM or not?
Met

hey, is IC50 for `Cc1ccc2nc(-c3ccc4nc(-c5ccc(NC(=O)c6ccc(C(C)(C)C)cc6)cc5)sc4c3)sc2c1S(=O)(=O)O` lower than 7 µM or not?
Met
